target: human recombinant MC1R (CHO-K1 stable cell line, GenScript) (human, UniProt Q01726 1-317); assay: cell-based or functional assay
Sequence (Q01726 whole entry): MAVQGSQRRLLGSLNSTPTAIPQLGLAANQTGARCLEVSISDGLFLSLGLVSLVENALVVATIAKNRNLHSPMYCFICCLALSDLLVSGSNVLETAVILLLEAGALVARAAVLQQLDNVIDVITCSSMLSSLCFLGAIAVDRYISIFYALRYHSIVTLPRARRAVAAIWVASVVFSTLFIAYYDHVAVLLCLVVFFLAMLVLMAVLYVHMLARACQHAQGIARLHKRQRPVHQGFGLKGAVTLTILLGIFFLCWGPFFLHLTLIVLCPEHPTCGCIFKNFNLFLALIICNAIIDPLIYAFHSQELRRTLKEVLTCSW
Positions of bridges follow the written chain, without caps; N, C: chain ends. Non-standard residues stand in square brackets, D forms with d. dPhe(4-CF3) = N[C@H](Cc1ccc(C(F)(F)F)cc1)C(=O)O; Trp(1-Me) = Cn1cc(C[C@H](N)C(=O)O)c2ccccc21; Lys(N3) = [N-]=[N+]=NCCCC[C@H](N)C(=O)O; Nle = CCCC[C@H](N)C(=O)O; Pra = C#CC[C@H](N)C(=O)O
MC1R IC50: recorded values
The reply should contain only the number, in pM.

Ac-[Nle][Lys(N3)]H[dF]R[Trp(1-Me)][Pra]K-NH2 (triazole 2-7; not fully specified; printed as Ac-Nle-[Lys(N3)-His-DPhe-Arg-Trp(Me)-Pra]-Lys-NH2) [KR-060]: 790
Ac-[Nle][Lys(N3)]H[dPhe(4-CF3)]RW[Pra]-NH2 (triazole 2-7) [KR-048]: 180

Reported MC1R IC50 for Ac-[Nle][Lys(N3)]H[dF]RW[Pra]N-NH2 (triazole 2-7; not fully specified; printed as Ac-Nle-[Lys(N3)-His-DPhe-Arg-Trp-Pra]-Asn-NH2) [KR-056] was 52
